Recorded self-cleavage by entry
B1: OR4K15 (parent)
chain: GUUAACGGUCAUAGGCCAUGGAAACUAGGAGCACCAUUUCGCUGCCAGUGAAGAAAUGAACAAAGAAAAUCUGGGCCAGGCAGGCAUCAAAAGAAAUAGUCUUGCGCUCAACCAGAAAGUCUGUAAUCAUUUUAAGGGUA

- Variants of: B1
- Assay Overview: self-cleavage, relative activity (ratio to wild type); higher = more cleavage; in vitro, sequencing; the parent is a self-cleaving ribozyme
Enter the number alone.

See these solved cases before continuing.
Mutation Key: A89G A116U
self-cleavage: 0.31
--
Mutation Key: A91U G138A
self-cleavage: 0.82

So what's the measured self-cleavage for this one? U57C A60G
1.01

// returns reported self-cleavage for input U39A A86C
1.21

I would be grateful if you could share the reported self-cleavage for A68U C113A .
0.01

Please give the measured self-cleavage for this variant: A69G A92G
0.72

Need self-cleavage of G14A A129U , thanks.
0.41

# get_value(readout='self-cleavage', item= A62G A82U )
0.25
